- target: TRPM8 (Homo sapiens)
- Construct: purchased Eurofins (Cerep) item #3316
- Sequence (Q7Z2W7 whole entry): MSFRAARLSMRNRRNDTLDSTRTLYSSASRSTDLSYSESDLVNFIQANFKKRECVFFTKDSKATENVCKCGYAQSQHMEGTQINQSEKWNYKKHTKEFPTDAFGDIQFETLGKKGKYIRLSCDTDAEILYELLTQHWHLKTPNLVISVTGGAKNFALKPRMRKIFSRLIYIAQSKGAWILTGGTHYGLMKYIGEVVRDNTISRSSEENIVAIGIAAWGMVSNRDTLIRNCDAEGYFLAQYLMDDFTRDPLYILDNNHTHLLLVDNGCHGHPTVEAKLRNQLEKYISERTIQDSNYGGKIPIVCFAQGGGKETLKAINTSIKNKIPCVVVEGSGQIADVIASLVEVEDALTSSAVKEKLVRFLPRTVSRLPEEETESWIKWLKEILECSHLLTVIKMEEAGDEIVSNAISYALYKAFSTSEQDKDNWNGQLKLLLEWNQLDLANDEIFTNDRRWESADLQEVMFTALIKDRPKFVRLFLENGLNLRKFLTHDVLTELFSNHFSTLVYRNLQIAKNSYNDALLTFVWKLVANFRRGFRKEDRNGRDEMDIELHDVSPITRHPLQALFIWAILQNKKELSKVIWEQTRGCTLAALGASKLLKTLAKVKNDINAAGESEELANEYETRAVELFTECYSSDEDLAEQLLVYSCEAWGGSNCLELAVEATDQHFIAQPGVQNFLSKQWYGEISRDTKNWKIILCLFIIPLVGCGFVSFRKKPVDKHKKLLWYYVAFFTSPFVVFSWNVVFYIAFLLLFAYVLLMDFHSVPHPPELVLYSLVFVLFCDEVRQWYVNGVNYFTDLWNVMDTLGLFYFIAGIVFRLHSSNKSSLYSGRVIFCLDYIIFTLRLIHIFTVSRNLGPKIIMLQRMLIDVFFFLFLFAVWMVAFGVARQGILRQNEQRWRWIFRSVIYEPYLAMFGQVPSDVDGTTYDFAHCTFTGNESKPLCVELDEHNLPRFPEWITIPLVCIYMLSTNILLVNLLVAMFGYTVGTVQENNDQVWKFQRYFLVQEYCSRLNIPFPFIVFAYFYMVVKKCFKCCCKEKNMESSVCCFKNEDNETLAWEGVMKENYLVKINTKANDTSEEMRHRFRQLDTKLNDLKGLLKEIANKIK
- protocol.description: TRPM8 Human Transient Potential Ion Channel Cell Based Agonist Calcium Flux Assay (Eurofins Cerep item #3316)
- setup.conditions: control activator ligand icilin, read-out: Percent Agonist
- Excerpt: Compounds can be tested using the commercially available kit from Eurofins “TRPM8 Human Transient Potential Ion Channel Cell Based Agonist Calcium Flux Assay, Cerep” item #3316, or using the assay, referenced by Eurofins, and described in Behrendt et al. “Characterization of the mouse cold-menthol receptor TRPM8 and vanilloid receptor type-1 VR1 using a fluorometric imaging plate reader (FLIPR) assay,” Br J Pharmacol. 2004 Feb;141(4):737-45, which are each incorporated herein by reference. […] 4. […]
Assignment: determine reported Emax for the given compounds.

{"columns": ["compound", "Emax"],
 "data": [
  ["COCCOc1ccc(NC(=O)[C@@H]2C[C@H](C)CC[C@H]2C(C)C)cc1", "> 75%"],
  ["CC(C)[C@@H]1CC[C@@H](C)C[C@H]1C(=O)NC1CCC(S(C)(=O)=O)C1 (some centres unmarked)", "> 50%"],
  ["COc1ccc(NC(=O)[C@@H]2C[C@H](C)CC[C@H]2C(C)C)nc1Cl", "> 75%"],
  ["CC(C)[C@@H]1CC[C@@H](C)C[C@H]1C(=O)Nc1ccc(OCCN(C)C)cc1", "> 75%"],
  ["COC1CC(NC(=O)[C@@H]2C[C@H](C)CC[C@H]2C(C)C)C1 (some centres unmarked)", "> 50%"],
  ["COC(=O)c1cc(NC(=O)[C@@H]2C[C@H](C)CC[C@H]2C(C)C)sn1", "> 75%"],
  ["COC12CCC(NC(=O)c3cc(Cl)ccc3C(C)C)(CC1)CC2", "> 100%"]
]}

Read the next record carefully.
**Q:** Reported Emax, compound `COc1ncc(NC(=O)[C@@H]2C[C@H](C)CC[C@H]2C(C)C)cc1F` : ____
**A:** > 75%
